Hey, just so you know, these numbers are from patent US9315475B2.

Biological target: wildtype HIV-1 protease (Human immunodeficiency virus type 1 group M subtype B)
Construct: the wildtype HIV-1 protease (which was expressed in Escherichia coli); made in house; host or cells: Escherichia coli
Test: Assay for inhibition of microbial expressed HIV protease (Pepcleav)
Type: biochemical
Settings: wild type HIV-1 protease expressed in E. coli, peptide substrate, pH 5.5; mean of at least two independent experiments; read-out: Pepcleav
pIC50: −log10 of the molar value.

- chemical_smiles: "N[C@H](C(=O)Nc1cncc(F)c1CC[C@@H]1CN[C@H](COC(=O)NC2(c3ccncc3)CCC2)CO1)C(c1ccc(F)cc1)c1ccc(F)cc1"
  pIC50: 7.00
- chemical_smiles: "COc1ccc([C@H](c2ccc(F)cc2)[C@H](N)C(=O)Nc2cncc(F)c2CC[C@@H]2CN[C@H](COC(=O)NCC(F)(F)F)CO2)cc1"
  pIC50: 8.08
- chemical_smiles: "COC(=O)N[C@H](C(=O)Nc1cccc(F)c1CC[C@@H]1CN[C@H](COC(=O)NCC(F)(F)F)CO1)[C@@H](c1ccc(Cl)c(F)c1)C1CCOCC1"
  pIC50: 8.07
- chemical_smiles: "COC(=O)N[C@H](C(=O)Nc1cncc(F)c1CC[C@@H]1CN[C@H](COC(=O)NCC(F)(F)F)CO1)[C@H](c1ccccc1)c1ccc(OC(F)(F)F)cc1"
  pIC50: 7.55
- chemical_smiles: "COC(=O)N[C@H](C(=O)Nc1cncc(F)c1CC[C@@H]1CN[C@H](COC(=O)NCC(F)(F)F)CO1)[C@@H](c1ccc(F)cc1)c1cc(F)ccc1F"
  pIC50: 8.80
- chemical_smiles: "COC(=O)N[C@H](C(=O)Nc1ccccc1CC[C@@H]1CN[C@H](COC(=O)N[C@H]2c3ccccc3C[C@H]2O)CO1)C(c1ccccc1)c1ccccc1"
  pIC50: 7.77

---

Test system: HIV-1 (H9IIIB strain)
Assay: Antiviral acute infection assay in cell culture (Spread)
Type: cell-based
Details: HIV-1 H9IIIB infection of MT-4 human T-lymphoid cells in 10% FBS; mean of at least two independent experiments
pEC50: −log10 of the molar value.
Attribute: pEC50

- compound: "O=C(C[C@@H](c1ccc(F)cc1)c1ccc(OC(F)(F)F)cc1)Nc1cccc(F)c1CC[C@@H]1CN[C@H](COC(=O)NCC(F)(F)F)CO1 [Example 159]"
  pEC50: 6.42
- compound: "N[C@H](C(=O)Nc1c(Cl)cccc1OC[C@@H]1CN[C@H](COC(=O)NCC(F)(F)F)CO1)C(c1ccc(F)cc1)c1ccc(F)cc1 [Example 261]"
  pEC50: 6.77

---

Target: wildtype HIV-1 protease (Human immunodeficiency virus type 1 group M subtype B, UniProt P04585)
Construct: the wildtype HIV-1 protease (which was expressed in Escherichia coli); made in house; host or cells: Escherichia coli
Assay: Assay for inhibition of microbial expressed HIV protease (Pepcleav)
Format: biochemical
Settings: wild type HIV-1 protease expressed in E. coli, peptide substrate, pH 5.5; mean of at least two independent experiments; read-out: Pepcleav

- molecule: "N[C@H](C(=O)Nc1c(Cl)cccc1OC[C@@H]1CN[C@H](COC(=O)NCC(F)(F)F)CO1)C(c1ccc(F)cc1)c1ccc(F)cc1 [Example 261]"
  IC50 (µM): 0.0043
- molecule: "N[C@H](C(=O)Nc1cncc(F)c1CC[C@@H]1CN[C@H](COC(=O)NCC(F)(F)F)CO1)[C@H](c1ccc(F)cc1)c1ccc(C(F)(F)F)cc1"
  IC50 (µM): 0.0036
- molecule: "N[C@H](C(=O)Nc1cncc(F)c1CC[C@@H]1CN[C@H](COC(=O)NCC2CCOCC2)CO1)C(c1ccc(F)cc1)c1ccc(F)cc1"
  IC50 (µM): 0.018
- molecule: "COC(=O)N[C@H](C(=O)Nc1cncc(F)c1CC[C@@H]1CN[C@H](COC(=O)NCC(F)(F)F)CO1)[C@@H](c1ccc(F)cc1)c1cccc(F)c1"
  IC50 (µM): 0.0009
- molecule: "O=C(C[C@@H](c1ccc(F)cc1)c1cc(F)cc(F)c1)Nc1cccc(F)c1CC[C@@H]1CN[C@H](COC(=O)NCC(F)(F)F)CO1"
  IC50 (µM): 0.0049
- molecule: "N[C@H](C(=O)Nc1cccc(F)c1CC[C@@H]1CN[C@H](COC(=O)NCc2cccnc2)CO1)C(c1ccc(F)cc1)c1ccc(F)cc1"
  IC50 (µM): 0.028
- molecule: "COC(=O)N[C@H](C(=O)Nc1ccccc1CC[C@@H]1CN[C@H](COC(=O)NCc2ccc3nonc3c2)CO1)C(c1ccccc1)c1ccccc1"
  IC50 (µM): 0.052
- molecule: "N[C@H](C(=O)Nc1cncc(F)c1CC[C@@H]1CN[C@H](COC(=O)NC[C@H]2CCCO2)CO1)C(c1ccc(F)cc1)c1ccc(F)cc1"
  IC50 (µM): 0.0035
- molecule: "COC(=O)N[C@H](C(=O)Nc1ccccc1CC[C@@H]1CN[C@H](CNS(=O)(=O)c2ccccn2)CO1)C(c1ccccc1)c1ccccc1"
  IC50 (µM): 0.091
- molecule: "COC(=O)N[C@H](C(=O)Nc1ccccc1CC(F)[C@@H]1CN[C@H](COC(=O)NCc2ccc(F)cc2)CO1)C(c1ccccc1)c1ccccc1 (stereo partly drawn)"
  IC50 (µM): 0.059
- molecule: "N[C@H](C(=O)Nc1cncc(F)c1CC[C@@H]1CN[C@H](COC(=O)NCc2ccc3ccccc3n2)CO1)C(c1ccc(F)cc1)c1ccc(F)cc1"
  IC50 (µM): 0.024
- molecule: "N[C@H](C(=O)Nc1cccc(F)c1CC[C@@H]1CN[C@H](COC(=O)NCC(F)(F)F)CO1)[C@H](c1ccccc1)c1cccc(Cl)c1"
  IC50 (µM): 0.022

---

Target: wildtype HIV-1 protease (Human immunodeficiency virus type 1 group M subtype B, UniProt P04585)
Construct: the wildtype HIV-1 protease (which was expressed in Escherichia coli); made in house; host or cells: Escherichia coli
Assay: Assay for inhibition of microbial expressed HIV protease (Pepcleav)
Assay type: biochemical
Conditions: wild type HIV-1 protease expressed in E. coli, peptide substrate, pH 5.5; mean of at least two independent experiments; read-out: Pepcleav
pIC50: −log10 of the molar value.
Kind request: treat 8 as inclusive, so pIC50 at 8 or higher is Condition met, anything lower is Condition not met.

- molecule: "COC(=O)N[C@H](C(=O)Nc1c(CC[C@@H]2CN[C@H](COC(=O)NCC(F)(F)F)CO2)ccnc1OC)C(c1ccccc1)c1ccccc1 [Example 35]"
  label: "Condition not met"
- molecule: "COC(=O)N[C@H](C(=O)Nc1ccccc1CC[C@@H]1CN[C@H](COC(=O)N2CCCC2)CO1)C(c1ccccc1)c1ccccc1 [Example 27]"
  label: "Condition not met"
- molecule: "N[C@H](C(=O)Nc1cncc(F)c1CC[C@@H]1CN[C@H](COC(=O)NC2CC(F)(F)C2)CO1)C(c1ccc(F)cc1)c1ccc(F)cc1 [Example 217]"
  label: "Condition met"
- molecule: "N[C@H](C(=O)Nc1cncc(F)c1CC[C@@H]1CN[C@H](COC(=O)NCc2nc3ccncc3[nH]2)CO1)C(c1ccc(F)cc1)c1ccc(F)cc1 [Example 242]"
  label: "Condition not met"
- molecule: "COC(=O)N[C@H](C(=O)Nc1cncc(F)c1CC[C@@H]1CN[C@H](COC(=O)NCC(F)(F)F)CO1)[C@H](c1ccc(F)cc1)c1ccc(F)c(F)c1 [Example 297]"
  label: "Condition met"

---

Target: wildtype HIV-1 protease (Human immunodeficiency virus type 1 group M subtype B, UniProt P04585)
Construct: the wildtype HIV-1 protease (which was expressed in Escherichia coli); made in house; host or cells: Escherichia coli
Assay: Assay for inhibition of microbial expressed HIV protease (Pepcleav)
Assay type: biochemical
Settings: Pepcleav (nM)
endpoint_name: IC50

- chemical_smiles: "COC(=O)N[C@H](C(=O)Nc1ccccc1CC[C@@H]1CN[C@H](COC(=O)N[C@H]2CO[C@H]3OCC[C@H]32)CO1)C(c1ccccc1)c1ccccc1"
  reported: "110 nM"

---

Target: wildtype HIV-1 protease (Human immunodeficiency virus type 1 group M subtype B, UniProt P04585)
Construct: the wildtype HIV-1 protease (which was expressed in Escherichia coli); made in house; host or cells: Escherichia coli
Assay: Assay for inhibition of microbial expressed HIV protease (Pepcleav)
Assay type: biochemical
Settings: wild type HIV-1 protease expressed in E. coli, peptide substrate, pH 5.5; mean of at least two independent experiments; read-out: Pepcleav
Please respond with yes when measured IC50 is strictly beneath 5 nM, and with no in all other cases.

- compound: "N[C@H](C(=O)Nc1cccc(F)c1CC[C@@H]1CN[C@H](COC(=O)NCC(F)(F)F)CO1)C(c1cccc(F)c1)c1cccc(F)c1 [Example 262]"
  label: "yes"
- compound: "N[C@H](C(=O)Nc1cccc(F)c1CC[C@@H]1CN[C@H](COC(=O)NCC(F)(F)F)CO1)[C@H](c1ccccc1)c1ccc(Oc2ccccc2)cc1 [Example 227]"
  label: "no"
- compound: "N[C@H](C(=O)Nc1cncc(F)c1CC[C@@H]1CN[C@H](COC(=O)NCC(F)(F)F)CO1)[C@@H](c1ccc(F)cc1)c1cccc(C(F)(F)F)c1 [Example 272]"
  label: "yes"
- compound: "O=C(C[C@H](c1ccccc1)c1ccncc1)Nc1cccc(F)c1CC[C@@H]1CN[C@H](COC(=O)NCC(F)(F)F)CO1 [Example 162]"
  label: "no"
- compound: "CCNC(=O)[C@@H]1CO[C@H](CCc2ccccc2NC(=O)[C@@H](NC(=O)OC)C(c2ccccc2)c2ccccc2)CN1 [Example 3]"
  label: "no"
- compound: "COC(=O)N[C@H](C(=O)Nc1ccccc1CC[C@@H]1CN[C@H](Cn2cc([Si](C)(C)C)nn2)CO1)C(c1ccccc1)c1ccccc1 [Example 65]"
  label: "no"
- compound: "O=C(C[C@@H](c1ccc(F)cc1)C1CCCCC1)Nc1cncc(F)c1CC[C@@H]1CN[C@H](COC(=O)NCC(F)(F)F)CO1 [Example 148]"
  label: "no"
- compound: "COC(=O)N[C@H](C(=O)Nc1ccccc1CC[C@@H]1CN[C@H](C(=O)NNc2ccccc2)CO1)C(c1ccccc1)c1ccccc1 [Example 9]"
  label: "no"
- compound: "COC(=O)N[C@H](C(=O)Nc1cncc(F)c1CC[C@@H]1CN[C@H](COC(=O)NCC(F)(F)F)CO1)[C@@H](c1ccc(F)cc1)c1ccc(F)c(F)c1 [Example 288]"
  label: "yes"
- compound: "COC(=O)N[C@H](C(=O)Nc1cccc(F)c1CC[C@@H]1CN[C@H](COC(=O)NCC(F)(F)F)CO1)[C@@H](c1ccc(F)cc1)c1cccc(OC(F)(F)F)c1 [Example 303]"
  label: "no"
- compound: "COC(=O)N[C@H](C(=O)Nc1ccccc1CC[C@@H]1CN[C@H](Cn2cc(-c3ccccc3)nn2)CO1)C(c1ccccc1)c1ccccc1 [Example 64]"
  label: "no"
- compound: "N[C@H](C(=O)Nc1cccc(F)c1CC[C@@H]1CN[C@H](COC(=O)NCC(F)(F)F)CO1)[C@H](c1ccc(F)cc1)c1ccc(Oc2ccccc2)cc1 [Example 230]"
  label: "no"
